For each of the molecules below, state its cell viability.
Test system: NOMO1
assay.comment: cell viability relative to DMSO control; higher = less cytotoxic
experimental.conditions: RPMI 5 mM glucose + 10% dialyzed FBS; 48 h; 0.0632 µM
Kindly answer with a numeric value in %, unit omitted.

[in] Fill in: cell viability of CNC1[C@@H](O)C(O[C@@H]2C(O)C(O[C@H]3O[C@H]([C@@H](C)NC)CC[C@H]3N)[C@@H](N)C[C@H]2N)OC[C@]1(C)O (stereo partly specified) is ___
[out] 88.5

[in] Moving on to Cn1cc(-c2ccc3nnc(C(F)(F)c4ccc5ncccc5c4)n3n2)cn1
[out] 99.2

[in] Moving on to Cc1cc(Nc2nc(N[C@@H](C)c3ncc(F)cn3)ncc2Cl)n[nH]1
[out] 127

[in] Moving on to CC(C)C[C@H](NC(=O)[C@@H](NC(=O)c1cccc(-c2ccccc2)n1)[C@@H](C)O)B(O)O
[out] 86.9

[in] Moving on to [NH2][Pt]([NH2])([Cl])[Cl]
[out] 97.4

[in] Moving on to Cn1c(Nc2ccc(C(F)(F)F)cc2)nc2cc(Oc3ccnc(-c4nc(C(F)(F)F)c[nH]4)c3)ccc21
[out] 140

Where do these numbers come from? They come from the supplement of paper PMC11451515.
